Taken from paper PMC11951083.

Overview of recorded IC50 for various molecules
Assayed System: mMAGL (Mus musculus, UniProt O35678)
Sequence (O35678 whole entry): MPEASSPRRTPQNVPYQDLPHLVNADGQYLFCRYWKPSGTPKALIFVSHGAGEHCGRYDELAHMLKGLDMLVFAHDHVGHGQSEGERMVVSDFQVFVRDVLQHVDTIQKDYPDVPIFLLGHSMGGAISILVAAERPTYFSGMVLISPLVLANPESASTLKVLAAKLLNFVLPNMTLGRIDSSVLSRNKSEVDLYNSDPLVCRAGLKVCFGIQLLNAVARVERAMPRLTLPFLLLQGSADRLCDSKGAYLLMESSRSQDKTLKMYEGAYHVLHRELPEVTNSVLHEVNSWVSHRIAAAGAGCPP
Test Protocol: Native MS (RapidFire) 2-AG substrate assay, purified mouse MAGL
Format: biochemical
Condition: SI Table 1; read-out: IC50 against purified MAGL ± SEM, Mouse
Readout Name: IC50

O=C1COc2ccc(C(=O)N3CC4(CC(CC5=C6C=CC=[N+]6[B-](F)(F)n6cccc65)C4)C3)cc2N1 : 18.6 nM
O=C1CO[C@H]2CCN(C(=O)N3C[C@@H]4[C@@H](COC5=C6C=CC=[N+]6[B-](F)(F)n6cccc65)[C@@H]4C3)C[C@H]2N1 : 1040 nM
O=C1CO[C@H]2CCN(C(=O)N3CC4(CCC(CC5=C6C=CC=[N+]6[B-](F)(F)n6cccc65)CC4)C3)C[C@H]2N1 : 12.4 nM
NC(=O)[C@H]1CCN(C(=O)N2CC3(CC(CC4=C5C=CC=[N+]5[B-](F)(F)n5cccc54)C3)C2)C1 : 2.07 nM
Cc1ccc2oc(N3CCN(C(=O)N4CC5(CC(CC6=C7C=CC=[N+]7[B-](F)(F)n7cccc76)C5)C4)CC3)nc2n1 : 108 nM
O=C1CO[C@H]2CCN(C(=O)N3CCC(=CC4=C5C=CC=[N+]5[B-](F)(F)n5cccc54)CC3)C[C@H]2N1 : 3400 nM

----------
Overview of recorded inhibition at 10 µM for various molecules
Assayed System: GSK3beta (h) (Homo sapiens, UniProt P49841)
Sequence (P49841 whole entry): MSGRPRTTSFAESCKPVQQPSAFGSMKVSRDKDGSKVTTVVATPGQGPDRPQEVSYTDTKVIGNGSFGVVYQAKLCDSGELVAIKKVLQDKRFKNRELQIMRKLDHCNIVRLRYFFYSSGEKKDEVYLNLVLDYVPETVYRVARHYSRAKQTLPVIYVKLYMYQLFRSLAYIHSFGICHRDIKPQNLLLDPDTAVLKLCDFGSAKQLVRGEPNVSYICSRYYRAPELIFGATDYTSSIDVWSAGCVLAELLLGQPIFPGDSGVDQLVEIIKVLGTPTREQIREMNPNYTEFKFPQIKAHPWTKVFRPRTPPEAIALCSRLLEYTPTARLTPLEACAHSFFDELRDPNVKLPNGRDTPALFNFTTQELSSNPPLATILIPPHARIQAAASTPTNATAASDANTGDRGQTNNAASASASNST
Test Protocol: GSK3beta (h)
Condition: read-out: Inhibition GSK3beta (h)
Readout Name: inhibition at 10 µM (%)

O=C1CO[C@H]2CCN(C(=O)N3CC4(CC(CC5=C6C=CC(c7ccc[nH]7)=[N+]6[B-](F)(F)n6cccc65)C4)C3)C[C@H]2N1 : -15
O=C(N1CC2(CC(CC3=C4C=CC=[N+]4[B-](F)(F)n4cccc43)C2)C1)N1CC2(CC(n3cnc(C4CC4)n3)C2)C1 : -1.2
O=C(OC(C(F)(F)F)C(F)(F)F)N1CC2(CC(CC3=C4C=CC(c5ccc[nH]5)=[N+]4[B-](F)(F)n4cccc43)C2)C1 : -1.5
O=C(OC(C(F)(F)F)C(F)(F)F)N1CC2(CC(CC3=C4C=CC=[N+]4[B-](F)(F)n4cccc43)C2)C1 : -1.7
O=C(O[C@H](CO)C(F)(F)F)N1CC2(CC(CC3=C4C=CC=[N+]4[B-](F)(F)n4cccc43)C2)C1 : 3.2

----------
Assayed System: norepinephrine transporter (h) (Homo sapiens)
Sequence (P23975 whole entry): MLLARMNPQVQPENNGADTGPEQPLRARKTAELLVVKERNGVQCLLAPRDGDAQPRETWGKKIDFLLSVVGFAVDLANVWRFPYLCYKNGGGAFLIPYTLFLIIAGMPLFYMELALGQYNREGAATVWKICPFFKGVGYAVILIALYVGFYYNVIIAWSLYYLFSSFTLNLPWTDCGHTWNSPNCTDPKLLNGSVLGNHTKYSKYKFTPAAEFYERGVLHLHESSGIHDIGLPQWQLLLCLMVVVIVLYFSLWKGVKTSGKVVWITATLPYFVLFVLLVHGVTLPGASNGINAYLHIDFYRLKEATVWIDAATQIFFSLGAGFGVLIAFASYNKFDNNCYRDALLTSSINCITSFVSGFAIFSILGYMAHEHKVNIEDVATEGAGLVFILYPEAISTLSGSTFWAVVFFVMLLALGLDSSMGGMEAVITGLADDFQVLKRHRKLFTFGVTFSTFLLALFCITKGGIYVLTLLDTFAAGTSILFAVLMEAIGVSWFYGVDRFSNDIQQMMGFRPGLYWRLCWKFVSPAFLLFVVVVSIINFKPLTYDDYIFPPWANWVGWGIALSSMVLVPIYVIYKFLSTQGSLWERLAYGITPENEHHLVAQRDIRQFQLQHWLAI
Test Protocol: norepinephrine transporter (h) (antagonist radioligand)
Condition: read-out: Inhibition norepinephrine transporter (h) (antagonist radioligand)
Overview of recorded inhibition at 10 µM for various molecules
Readout Name: inhibition at 10 µM (%)

O=C1CO[C@H]2CCN(C(=O)N3CC4(CC(CC5=C6C=CC(c7ccc[nH]7)=[N+]6[B-](F)(F)n6cccc65)C4)C3)C[C@H]2N1 : 12.2
O=C(N1CC2(CC(CC3=C4C=CC=[N+]4[B-](F)(F)n4cccc43)C2)C1)N1CC2(CC(n3cnc(C4CC4)n3)C2)C1 : 8.6
O=C(OC(C(F)(F)F)C(F)(F)F)N1CC2(CC(CC3=C4C=CC(c5ccc[nH]5)=[N+]4[B-](F)(F)n4cccc43)C2)C1 : 6.3
O=C(OC(C(F)(F)F)C(F)(F)F)N1CC2(CC(CC3=C4C=CC=[N+]4[B-](F)(F)n4cccc43)C2)C1 : -0.5
O=C(O[C@H](CO)C(F)(F)F)N1CC2(CC(CC3=C4C=CC=[N+]4[B-](F)(F)n4cccc43)C2)C1 : 7.4

----------
Assayed System: M2 (h) (Homo sapiens)
Sequence (P08172 whole entry): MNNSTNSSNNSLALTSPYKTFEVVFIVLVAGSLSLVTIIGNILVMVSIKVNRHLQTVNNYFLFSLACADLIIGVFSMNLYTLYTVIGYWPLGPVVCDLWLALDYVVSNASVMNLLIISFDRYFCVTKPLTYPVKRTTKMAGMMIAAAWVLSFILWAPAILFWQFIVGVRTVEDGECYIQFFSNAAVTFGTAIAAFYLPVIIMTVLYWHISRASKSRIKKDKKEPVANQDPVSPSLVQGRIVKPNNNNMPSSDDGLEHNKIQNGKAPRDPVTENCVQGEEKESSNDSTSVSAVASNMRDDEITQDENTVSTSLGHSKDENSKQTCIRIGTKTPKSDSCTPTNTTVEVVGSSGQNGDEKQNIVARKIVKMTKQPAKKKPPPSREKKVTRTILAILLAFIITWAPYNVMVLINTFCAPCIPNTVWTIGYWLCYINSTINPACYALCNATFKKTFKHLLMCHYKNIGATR
Test Protocol: M2 (h) (antagonist radioligand)
Condition: read-out: Inhibition M2 (h) (antagonist radioligand)
Readout Name: inhibition at 10 µM (%)

O=C1CO[C@H]2CCN(C(=O)N3CC4(CC(CC5=C6C=CC(c7ccc[nH]7)=[N+]6[B-](F)(F)n6cccc65)C4)C3)C[C@H]2N1 : -4.9
O=C(N1CC2(CC(CC3=C4C=CC=[N+]4[B-](F)(F)n4cccc43)C2)C1)N1CC2(CC(n3cnc(C4CC4)n3)C2)C1 : 33.2
O=C(O[C@H](CO)C(F)(F)F)N1CC2(CC(CC3=C4C=CC=[N+]4[B-](F)(F)n4cccc43)C2)C1 : 35.1
O=C(OC(C(F)(F)F)C(F)(F)F)N1CC2(CC(CC3=C4C=CC(c5ccc[nH]5)=[N+]4[B-](F)(F)n4cccc43)C2)C1 : -13.1
O=C(OC(C(F)(F)F)C(F)(F)F)N1CC2(CC(CC3=C4C=CC=[N+]4[B-](F)(F)n4cccc43)C2)C1 : 22.2

----------
Overview of recorded pIC50 for various molecules
Assayed System: rMAGL (Rattus norvegicus, UniProt Q8R431)
Sequence (Q8R431 whole entry): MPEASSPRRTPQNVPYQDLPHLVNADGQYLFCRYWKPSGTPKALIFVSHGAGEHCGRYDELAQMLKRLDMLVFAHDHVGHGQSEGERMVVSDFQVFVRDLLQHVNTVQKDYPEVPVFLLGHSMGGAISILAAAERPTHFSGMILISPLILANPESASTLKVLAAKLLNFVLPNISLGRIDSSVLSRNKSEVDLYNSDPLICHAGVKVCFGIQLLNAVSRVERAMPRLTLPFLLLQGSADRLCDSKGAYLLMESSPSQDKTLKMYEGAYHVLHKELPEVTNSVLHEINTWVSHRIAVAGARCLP
Test Protocol: Native MS (RapidFire) 2-AG substrate assay, purified rat MAGL
Format: biochemical
Condition: SI Table 1; read-out: IC50 against purified MAGL ± SEM, Rat
pIC50: −log10 of the molar value.
Readout Name: pIC50

O=C1CO[C@H]2CCN(C(=O)N3CC4(CCC(OC5=C6C=CC=[N+]6[B-](F)(F)n6cccc65)CC4)C3)C[C@H]2N1 : 7.67
O=C1NC2(CO1)CN(C(=O)N1CC3(CCC(CC4=C5C=CC=[N+]5[B-](F)(F)n5cccc54)CC3)C1)C2 : 8.45
O=C1NC2(CO1)CN(C(=O)N1CC3(CC(CC4=C5C=CC=[N+]5[B-](F)(F)n5cccc54)C3)C1)C2 : 8.35
O=C1CO[C@H]2CCN(C(=O)N3CC4(CCC(CC5=C6C=CC=[N+]6[B-](F)(F)n6cccc65)CC4)C3)C[C@H]2N1 : 7.96

----------
Overview of recorded pIC50 for various molecules
Assayed System: mMAGL (Mus musculus, UniProt O35678)
Test Protocol: Native MS (RapidFire) 2-AG substrate assay, purified mouse MAGL
Type: biochemical
Condition: purified mouse MAGL, native MS substrate assay; read-out: IC50 mMAGL
pIC50: −log10 of the molar value.
Readout Name: pIC50

O=C(N1CC2(CC(CC3=C4C=CC(c5ccc[nH]5)=[N+]4[B-](F)(F)n4cccc43)C2)C1)N1CC2(CC(n3cnc(C4CC4)n3)C2)C1 : 9.05
O=C1NC2(CO1)CN(C(=O)N1CC3(CCC(CC4=C5C=CC=[N+]5[B-](F)(F)n5cccc54)CC3)C1)C2 : 9.02
O=C(OC(C(F)(F)F)C(F)(F)F)N1CC2(CC(CC3=C4C=CC=[N+]4[B-](F)(F)n4cccc43)C2)C1 : 9.48
O=C1CO[C@H]2CCN(C(=O)N3CC4(CC(CC5=C6C=CC(c7ccc[nH]7)=[N+]6[B-](F)(F)n6cccc65)C4)C3)C[C@H]2N1 : 9.74
O=C(OC(C(F)(F)F)C(F)(F)F)N1CC2(CC(CC3=C4C=CC(c5ccc[nH]5)=[N+]4[B-](F)(F)n4cccc43)C2)C1 : 9.10
O=C(O[C@H](CO)C(F)(F)F)N1CC2(CC(CC3=C4C=CC(c5ccc[nH]5)=[N+]4[B-](F)(F)n4cccc43)C2)C1 : 9.51

----------
Overview of recorded inhibition at 10 µM for various compounds
Assayed System: PDE4D2 (h) (Homo sapiens, UniProt Q08499)
Sequence (Q08499 303-809 limits assumed): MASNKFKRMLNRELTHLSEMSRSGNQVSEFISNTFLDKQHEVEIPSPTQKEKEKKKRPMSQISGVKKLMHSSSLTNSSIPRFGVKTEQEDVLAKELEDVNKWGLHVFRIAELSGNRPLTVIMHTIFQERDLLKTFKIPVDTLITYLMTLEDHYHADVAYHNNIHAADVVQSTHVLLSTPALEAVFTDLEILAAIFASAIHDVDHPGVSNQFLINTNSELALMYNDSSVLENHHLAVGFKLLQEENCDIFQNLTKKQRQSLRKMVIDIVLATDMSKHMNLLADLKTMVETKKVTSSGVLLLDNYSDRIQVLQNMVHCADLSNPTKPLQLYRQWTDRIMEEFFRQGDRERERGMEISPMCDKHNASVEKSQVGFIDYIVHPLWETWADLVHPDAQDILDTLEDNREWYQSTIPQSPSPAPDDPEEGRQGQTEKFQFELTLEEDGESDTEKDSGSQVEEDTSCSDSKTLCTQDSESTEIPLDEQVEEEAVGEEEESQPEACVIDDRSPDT
Test Protocol: PDE4D2 (h)
Condition: read-out: Inhibition PDE4D2 (h)
Readout Name: inhibition at 10 µM

O=C(N1CC2(CC(CC3=C4C=CC=[N+]4[B-](F)(F)n4cccc43)C2)C1)N1CC2(CC(n3cnc(C4CC4)n3)C2)C1 [Compound 5] : 11.3%
O=C1CO[C@H]2CCN(C(=O)N3CC4(CC(CC5=C6C=CC(c7ccc[nH]7)=[N+]6[B-](F)(F)n6cccc65)C4)C3)C[C@H]2N1 [Compound 4a] : 10.8%
O=C(O[C@H](CO)C(F)(F)F)N1CC2(CC(CC3=C4C=CC=[N+]4[B-](F)(F)n4cccc43)C2)C1 [Compound 1] : 18%
O=C(OC(C(F)(F)F)C(F)(F)F)N1CC2(CC(CC3=C4C=CC(c5ccc[nH]5)=[N+]4[B-](F)(F)n4cccc43)C2)C1 [Compound 2a] : -10.8%
O=C(OC(C(F)(F)F)C(F)(F)F)N1CC2(CC(CC3=C4C=CC=[N+]4[B-](F)(F)n4cccc43)C2)C1 [Compound 2] : -0.6%

----------
Assayed System: glycine (strychnine-insensitive) (Rattus norvegicus, UniProt P35439)
Sequence (P35439 394-800): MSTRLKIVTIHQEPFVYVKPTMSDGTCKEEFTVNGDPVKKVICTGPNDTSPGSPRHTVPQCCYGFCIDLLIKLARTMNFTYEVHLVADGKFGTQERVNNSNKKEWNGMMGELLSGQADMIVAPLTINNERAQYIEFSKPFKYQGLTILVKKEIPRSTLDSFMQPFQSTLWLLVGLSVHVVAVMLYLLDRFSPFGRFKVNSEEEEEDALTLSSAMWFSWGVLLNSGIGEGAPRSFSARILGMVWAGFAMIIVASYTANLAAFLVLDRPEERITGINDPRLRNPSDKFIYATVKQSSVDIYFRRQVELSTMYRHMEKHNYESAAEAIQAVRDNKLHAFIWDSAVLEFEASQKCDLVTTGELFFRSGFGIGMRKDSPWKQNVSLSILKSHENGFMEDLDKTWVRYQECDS
Test Protocol: glycine (strychnine-insensitive) (antagonist radioligand)
Condition: read-out: Inhibition glycine (strychnine-insensitive) (antagonist radioligand)
Readout Name: inhibition at 10 µM (%)

O=C1CO[C@H]2CCN(C(=O)N3CC4(CC(CC5=C6C=CC(c7ccc[nH]7)=[N+]6[B-](F)(F)n6cccc65)C4)C3)C[C@H]2N1 : 3.1
O=C(OC(C(F)(F)F)C(F)(F)F)N1CC2(CC(CC3=C4C=CC(c5ccc[nH]5)=[N+]4[B-](F)(F)n4cccc43)C2)C1 : -2
O=C(N1CC2(CC(CC3=C4C=CC=[N+]4[B-](F)(F)n4cccc43)C2)C1)N1CC2(CC(n3cnc(C4CC4)n3)C2)C1 : -20.3
O=C(O[C@H](CO)C(F)(F)F)N1CC2(CC(CC3=C4C=CC=[N+]4[B-](F)(F)n4cccc43)C2)C1 : -6.7
O=C(OC(C(F)(F)F)C(F)(F)F)N1CC2(CC(CC3=C4C=CC=[N+]4[B-](F)(F)n4cccc43)C2)C1 : 6.5
